These data points were gathered from patent US12486269B2.

# target_under_test: human calcitonin receptor (CTR) (Homo sapiens)
# Construct: expressed in transfected cells; host or cells: COS-7 (COS7-human CTR Clone #2)
# Sequence (P30988 25-474): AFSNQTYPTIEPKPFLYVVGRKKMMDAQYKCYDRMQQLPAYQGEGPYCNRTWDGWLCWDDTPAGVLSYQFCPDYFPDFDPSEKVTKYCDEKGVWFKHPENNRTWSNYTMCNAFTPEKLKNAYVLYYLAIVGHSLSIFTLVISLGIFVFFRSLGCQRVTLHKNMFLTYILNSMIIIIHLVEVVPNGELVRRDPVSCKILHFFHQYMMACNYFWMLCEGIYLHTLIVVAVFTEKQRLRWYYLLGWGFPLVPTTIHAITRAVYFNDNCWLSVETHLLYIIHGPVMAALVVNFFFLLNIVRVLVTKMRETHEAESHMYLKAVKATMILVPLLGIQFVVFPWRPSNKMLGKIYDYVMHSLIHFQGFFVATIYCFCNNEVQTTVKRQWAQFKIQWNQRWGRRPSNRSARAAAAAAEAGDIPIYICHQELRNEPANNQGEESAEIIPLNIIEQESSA
# procedure_summary: Calcitonin Receptor (CTR) cAMP Assay
# Type: cell-based
# condition_details: COS7-human CTR Clone #2 stable cell line, cAMP dynamic 2 kit, 30 min; read-out: Calcitonin Receptor cAMP Stimulation Activity: EC50
pEC50: −log10 of the molar value.
rule met means recorded pEC50 is 10 or above; rule not met means it is below 10.

1) O=C1c2c(nc(CCc3ccc(F)cc3)c(-c3noc(=O)[nH]3)c2-c2cc3ccnc(NCc4ccc5c(c4)CCC5)c3s2)[C@@H]2CCCN12 | rule not met
2) N#Cc1ccc(Cn2c(=O)oc3cc(-c4c5c(nc(CCc6ccc(F)cc6)c4-c4n[nH]c(=O)o4)[C@@H]4CCCN4C5=O)ccc32)nc1 | rule not met
3) COc1c(F)cc(F)c2c1CC[C@H]2Nc1nccc2cc(-c3c4c(nc(CCc5ccc(F)cc5)c3-c3n[nH]c(=O)o3)C35CC(CN3C4=O)C5)sc12 | rule met
4) CC(c1ccc(C#N)c(F)c1)n1ccc2cc(-c3c(-c4n[nH]c(=O)o4)c(CCc4ccc(F)cc4)nc4c3c(=O)n3n4CCC3)ccc21 (stereo not drawn) | rule not met
5) COc1c(F)ccc2c1CC[C@H]2Nc1nc(C)cc2cc(-c3c4c(nc(CCc5ccc(F)cc5)c3-c3n[nH]c(=O)o3)C35CC(CN3C4=O)C5)sc12 | rule met

----------
# target_under_test: COS-7/AMY3 (human calcitonin receptor (CTR) and RAMP3) (Homo sapiens, UniProt O60896+P30988)
# Construct: expressed in transfected cells; host or cells: COS-7
# procedure_summary: Amylin Receptor cAMP Assay II
# Assay type: cell-based
# condition_details: values marked **: Amylin Receptor cAMP Assay II; COS-7/AMY3 cells, cAMP dynamic 2 kit, 30 min; read-out: Amylin Receptor cAMP Stimulation Activity: EC50
pEC50: −log10 of the molar value.
In this section we review reported pEC50 values for a set of molecules.
measurement_kind: pEC50

1. Cc1cc2cc(-c3c4c(nc(CCc5ccc(F)cc5)c3-c3n[nH]c(=O)o3)[C@@H]3CCCN3C4=O)sc2c(N[C@@H]2CCc3cc(F)c(F)cc32)n1 [Compound 253] | 8.73
2. O=C1c2c(nc(CCc3ccc(F)cc3)c(-c3n[nH]c(=O)o3)c2-c2cc3ccnc(N[C@@H]4CCc5c(F)cccc54)c3s2)C23CC(CN12)C3 [Compound 272] | 8.84
3. COc1c(F)ccc2c1CC[C@H]2Nc1ncnc2cc(-c3c4c(nc(CCc5ccc(F)cc5)c3-c3n[nH]c(=O)o3)C35CC(CN3C4=O)C5)sc12 [Compound 268] | 8.97

----------
In this section we review reported EC50 values for a set of compounds.
# target_under_test: COS-7/AMY3 (human calcitonin receptor (CTR) and RAMP3) (Homo sapiens, UniProt O60896+P30988)
# Construct: expressed in transfected cells; host or cells: COS-7
# procedure_summary: Amylin Receptor cAMP Assay II
# Format: cell-based
# condition_details: values marked **: Amylin Receptor cAMP Assay II; COS-7/AMY3 cells, cAMP dynamic 2 kit, 30 min; read-out: Amylin Receptor cAMP Stimulation Activity: EC50
measurement_kind: EC50 (nM)

1. O=C1c2c(nc(CCc3ccc(F)cc3)c(-c3noc(=O)[nH]3)c2-c2cc3ccnc(NCc4ccc5c(c4)CCC5)c3s2)[C@@H]2CCCN12 | 288
2. Cn1cc(Cc2nccc3cc(-c4c5c(nc(CCc6ccc(F)cc6)c4-c4n[nH]c(=O)o4)[C@@H]4CCCN4C5=O)sc23)c2ccccc21 | 62800
3. CC(c1ccc(C#N)cn1)N1C(=O)C(C)(C)Oc2cc(-c3c4c(nc(CCc5ccc(F)cc5)c3-c3n[nH]c(=O)o3)[C@@H]3CCCN3C4=O)ccc21 (stereo partly drawn) | 248

----------
In this section we review reported EC50 values for a set of compounds.
# target_under_test: UniProt:P30988
# Sequence (P30988 25-474): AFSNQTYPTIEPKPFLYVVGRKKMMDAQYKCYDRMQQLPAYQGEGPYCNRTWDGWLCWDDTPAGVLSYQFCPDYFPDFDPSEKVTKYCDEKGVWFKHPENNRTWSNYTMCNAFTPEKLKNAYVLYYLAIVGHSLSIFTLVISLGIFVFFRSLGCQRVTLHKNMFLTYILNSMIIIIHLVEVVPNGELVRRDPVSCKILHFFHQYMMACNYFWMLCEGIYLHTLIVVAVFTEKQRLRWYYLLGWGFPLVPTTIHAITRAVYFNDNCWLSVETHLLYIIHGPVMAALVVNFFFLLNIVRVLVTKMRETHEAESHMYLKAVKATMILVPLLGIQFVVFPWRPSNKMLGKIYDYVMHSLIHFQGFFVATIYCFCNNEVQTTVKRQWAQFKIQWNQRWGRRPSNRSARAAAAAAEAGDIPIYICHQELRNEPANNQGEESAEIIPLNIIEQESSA
# procedure_summary: Calcitonin Receptor (CTR) cAMP Assay
# condition_details: COS7-human CTR Clone #2 stable cell line, cAMP dynamic 2 kit, 30 min; read-out: Calcitonin Receptor cAMP Stimulation Activity: EC50
measurement_kind: EC50 (nM)

1. O=C1c2c(nc(CCc3ccc(F)cc3)c(-c3n[nH]c(=O)o3)c2-c2cc3ccnc(N[C@@H]4CCc5c(F)cccc54)c3s2)C23CC(CN12)C3 | 0.0666
2. COc1cccc2c1CC[C@H]2Nc1nccc2cc(-c3c4c(nc(CCc5ccc(F)cc5)c3-c3cc(=O)[nH]o3)[C@@H]3CCCN3C4=O)sc12 | 1.06
3. COc1cc2c(cc1F)[C@H](Nc1nccc3cc(-c4c5c(nc(CCc6ccc(F)cc6)c4-c4n[nH]c(=O)o4)[C@@H]4CCCN4C5=O)sc13)CC2 | 0.696
4. COc1c(F)ccc2c1CC[C@H]2Nc1nccc2cc(-c3c4c(nc(CCc5ccccc5Cl)c3-c3n[nH]c(=O)o3)C35CC(CN3C4=O)C5)sc12 | 0.0636
5. Cc1cc2cc(-c3c4c(nc(CCc5ccc(F)cc5)c3-c3n[nH]c(=O)o3)[C@@H]3CCCN3C4=O)sc2c(N[C@@H]2CCc3cc(F)c(F)cc32)n1 | 0.0708
6. C[C@@H](Nc1nccc2cc(-c3c4c(nc(CCc5ccc(F)cc5)c3-c3noc(=O)[nH]3)[C@@H]3CCCN3C4=O)sc12)c1ccc(F)c(F)c1 | 2.13
7. COc1c(F)ccc2c1CC(F)(F)[C@H]2Nc1nccc2cc(-c3c4c(nc(CCc5ccc(F)cc5)c3-c3n[nH]c(=O)o3)[C@@H]3CCCN3C4=O)sc12 | 0.0464
8. COc1c(F)ccc2c1CC[C@H]2Nc1nccc2cc(-c3c4c(nc(CCc5cccc(F)c5)c3-c3n[nH]c(=O)o3)C35CC(CN3C4=O)C5)sc12 | 0.0262
9. O=C1c2c(nc(CCc3ccc(F)cc3)c(-c3n[nH]c(=O)o3)c2-c2ccc3c(Cc4ccc(F)cc4F)noc3c2)[C@@H]2CCCN12 | 15.5
10. O=C1c2c(nc(CCC34CCC(CC3)OC4)c(-c3n[nH]c(=O)o3)c2-c2cnc3c(ccn3Cc3ncc(Cl)cc3F)c2)[C@@H]2CCCN12 | 36.3
11. COc1cccc2c1CC[C@H]2Nc1nccc2cc(-c3c4c(nc(CCc5cccc(C6CCOC6)c5)c3-c3noc(=O)[nH]3)[C@@H]3CCCN3C4=O)sc12 (some centres unmarked) | 22
12. O=C1c2c(nc(CCC3CCOCC3)c(-c3cc(=O)[nH]o3)c2-c2cc3ccnc(NCc4ccc(F)c(F)c4)c3s2)[C@@H]2CCCN12 | 26.1
13. COc1c(F)ccc2c1C[C@@H](F)[C@H]2Nc1nccc2cc(-c3c4c(nc(CCc5ccc(F)cc5)c3-c3n[nH]c(=O)o3)[C@@H]3CCCN3C4=O)sc12 | 0.0529
14. O=C(c1ccc(-c2c3c(nc(CCc4ccc(F)cc4)c2-c2noc(=O)[nH]2)[C@@H]2CCCN2C3=O)s1)N1CCCC1c1ccc(F)c(F)c1 (some centres unmarked) | 25.6
15. O=C1c2c(nc(CCc3ccc(F)cc3)c(-c3n[nH]c(=O)o3)c2-c2cc3ccnc(N[C@@H]4CCc5cc(Cl)ccc54)c3s2)C23CC(CN12)C3 | 0.165
16. COc1cccc2c1CC[C@H]2Nc1nccc2cc(-c3c4c(nc(CCc5ccc(F)cc5)c3-c3n[nH]c(=O)o3)C35CC3CCN5C4=O)sc12 (some centres unmarked) | 0.559
17. O=C1c2c(nc(CCc3ccc(F)cc3)c(-c3n[nH]c(=O)o3)c2-c2cc3ccnc(N[C@@H]4CCOc5c(F)cc(F)cc54)c3s2)[C@@H]2CCCN12 | 0.152
18. COc1c(F)ccc2c1CC[C@H]2Nc1ccnc2cc(-c3c4c(nc(CCc5ccc(F)cc5)c3-c3n[nH]c(=O)o3)C35CC(CN3C4=O)C5)sc12 | 0.178
19. COc1c(F)ccc2c1C[C@@H](F)[C@H]2Nc1nc(C)cc2cc(-c3c4c(nc(CCc5ccc(F)cc5)c3-c3n[nH]c(=O)o3)[C@@H]3CCCN3C4=O)sc12 | 0.0551
20. N#Cc1ccc(Cn2ccc3cc(-c4c5c(nc(CCc6ccc(F)cc6)c4-c4n[nH]c(=O)o4)[C@@H]4CCCN4C5=O)cnc32)nc1 | 27.6
21. COc1cccc2c1CC[C@H]2Nc1nccc2cc(-c3c4c(nc(CCc5ccc(F)cc5)c3-c3noc(=O)[nH]3)[C@@H]3CCCN3C4=O)sc12 | 0.926
22. O=C1c2c(nc(CCc3ccc(F)cc3)c(-c3n[nH]c(=O)o3)c2-c2cc3ccnc(N[C@@H]4CCc5cc(F)ccc54)c3s2)[C@@H]2CCCN12 | 0.247
23. N#Cc1ccc(Cn2ccc3cc(-c4c5c(nc(CCC67CCC(CC6)OC7)c4-c4n[nH]c(=O)o4)[C@@H]4CCCN4C5=O)cnc32)c(F)c1 | 171
